Origin of the recorded values: patent US11952330B2

test system: human red blood cell; test: In vitro hemolysis assay; type: cell-based; settings: 32 μg/ml, human RBCs, 37° C., 1 hour
Each entry below carries its recorded % hemolysis at 32 μg/ml.
measurement_label: % hemolysis at 32 μg/ml

1) CCCCCCOc1ccccc1C(=O)Nc1ccc(C(=O)OCC[N+](CC)(CC)CCCCC)cc1.[Br-]
5%
2) CCCCCCCOc1cc(F)ccc1C(=O)Nc1ccc(S(=O)(=O)NCC[N+](CC)(CC)CCCC)cc1.[Br-]
14%
3) CCCCCCCCOc1ccccc1C(=O)Nc1ccc(C(=O)OCC[N+](C)(C)C)cc1.[Br-]
92%
4) CCCCCCCCOc1cccc(OCCCCCCCC)c1C(=O)Nc1ccc(C(=O)OCC[N+](C)(CC)CC)cc1.[Br-]
90%
